Assay: Quantitative High-Throughput drug screen in 47 multiple myeloma cell lines against the NCATS MIPE library collection: Karpas417_ECACC cell viability assay (AID 1918961);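 note: 100% = DMSO only wells and 0% = media only wells without cells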
Conditions: Karpas417 myeloma viability, CellTiter-Glo ATP luminescence, 48 h; at 45.8 µM (top of the series)
Records with an inconclusive call do not appear.
Please provide measured viability (% of DMSO) for the entries that follow.
Numbers only here, please. The scale is %.

Query: What value of viability (% of DMSO) has been recorded for this entry: "O=C(C[C@@H]1CC=CCCC(=O)O[C@H](c2ccccc2)CNC1=O)NCc1ccc(Cl)cc1"
Result: 118

Query: Again, but for "O=C(O)CCCCCC(=O)NN=C1CCCC1"
Result: 136

Query: Again, but for "O=c1[nH]c(=O)n([C@H]2C[C@@H](O)[C@@H](CO)O2)cc1C=CBr"
Result: 90.1

Query: Again, but for "c1cc(CN2CCCNCCNCCCNCC2)ccc1CN1CCCNCCNCCCNCC1"
Result: 134

Query: Again, but for "CCN(C(=O)c1c(O)c2c(Cl)cccc2n(C)c1=O)c1ccccc1"
Result: 104

Query: Again, but for "Cc1cc(O)c2c(c1)C(=O)c1cccc(O)c1C2=O"
Result: 136

The reported numbers originate from PubChem BioAssay (NCATS).
